- Test Method Notes: Solubility in 0.01N HCl
- Format: physicochemical
The following molecules are shown together with reported solubility values.

>  <Molecule>
CC(=O)Nc1nc2c(Oc3cc(-c4ccc(C(F)(F)F)cc4)ncn3)cccc2s1

>  <Experimental Value>
< 1 µg/mL

$$$$
>  <Molecule>
CC(=O)Nc1nc2c(Oc3cc(N4CCN(C(C)c5ccccc5F)CC4)ncn3)cccc2s1 (stereo not given)

>  <Experimental Value>
≥ 200 µg/mL

$$$$
>  <Molecule>
CC(=O)Nc1nc2c(Oc3cc(N4CCN(C(C)c5cccc(F)c5)CC4)ncn3)cccc2s1 (stereo not given)

>  <Experimental Value>
≥ 200 µg/mL

$$$$
>  <Molecule>
CC(=O)Nc1nc2c(Oc3cc(N4CCNCC4)ncn3)cccc2s1

>  <Experimental Value>
173 µg/mL

$$$$

// query # input molecule: `CC(=O)Nc1nc2c(Oc3cc(N4CCN([C@@H](C)c5ccc(F)cc5)CC4)ncn3)cccc2s1` ; wanted: its solubility
// result ≥ 200 µg/mL
